Biological target: Bromodomain-containing protein 4 (Homo sapiens)
Conditions: Compound concentration 20.0 uM
Below: a set of entries, each annotated with reported ΔTm.
propertyLabel: ΔTm

{"columns": ["smilesNotation", "propertyLabel", "result"],
 "data": [
  ["O=C(NO)c1ccc(CN(c2cnccn2)c2cnccn2)cc1", "ΔTm", "-1.6 °C"],
  ["COC(=O)[C@H]1[C@H]2C[C@@H]3c4[nH]c5cc(OC)ccc5c4CCN3C[C@H]2C[C@@H](OC(=O)c2cc(OC)c(OC)c(OC)c2)[C@@H]1OC", "ΔTm", "-0.12 °C"],
  ["Cc1ccc(C)c(-n2sc3cc(F)ccc3c2=O)c1", "ΔTm", "-11.5 °C"],
  ["COc1cc2c(cc1OC)[C@H]1C[C@@H](O)[C@H](CC(C)C)CN1CC2", "ΔTm", "1.89 °C"],
  ["NC(=O)c1cnc(N[C@@H]2CCCC[C@@H]2N)nc1Nc1cccc(-n2nccn2)c1", "ΔTm", "-1.09 °C"]
]}

---

Below: a set of entries, each annotated with reported ΔTm.
Biological target: Transcription intermediary factor 1-alpha (Homo sapiens)
Sequence (whole entry): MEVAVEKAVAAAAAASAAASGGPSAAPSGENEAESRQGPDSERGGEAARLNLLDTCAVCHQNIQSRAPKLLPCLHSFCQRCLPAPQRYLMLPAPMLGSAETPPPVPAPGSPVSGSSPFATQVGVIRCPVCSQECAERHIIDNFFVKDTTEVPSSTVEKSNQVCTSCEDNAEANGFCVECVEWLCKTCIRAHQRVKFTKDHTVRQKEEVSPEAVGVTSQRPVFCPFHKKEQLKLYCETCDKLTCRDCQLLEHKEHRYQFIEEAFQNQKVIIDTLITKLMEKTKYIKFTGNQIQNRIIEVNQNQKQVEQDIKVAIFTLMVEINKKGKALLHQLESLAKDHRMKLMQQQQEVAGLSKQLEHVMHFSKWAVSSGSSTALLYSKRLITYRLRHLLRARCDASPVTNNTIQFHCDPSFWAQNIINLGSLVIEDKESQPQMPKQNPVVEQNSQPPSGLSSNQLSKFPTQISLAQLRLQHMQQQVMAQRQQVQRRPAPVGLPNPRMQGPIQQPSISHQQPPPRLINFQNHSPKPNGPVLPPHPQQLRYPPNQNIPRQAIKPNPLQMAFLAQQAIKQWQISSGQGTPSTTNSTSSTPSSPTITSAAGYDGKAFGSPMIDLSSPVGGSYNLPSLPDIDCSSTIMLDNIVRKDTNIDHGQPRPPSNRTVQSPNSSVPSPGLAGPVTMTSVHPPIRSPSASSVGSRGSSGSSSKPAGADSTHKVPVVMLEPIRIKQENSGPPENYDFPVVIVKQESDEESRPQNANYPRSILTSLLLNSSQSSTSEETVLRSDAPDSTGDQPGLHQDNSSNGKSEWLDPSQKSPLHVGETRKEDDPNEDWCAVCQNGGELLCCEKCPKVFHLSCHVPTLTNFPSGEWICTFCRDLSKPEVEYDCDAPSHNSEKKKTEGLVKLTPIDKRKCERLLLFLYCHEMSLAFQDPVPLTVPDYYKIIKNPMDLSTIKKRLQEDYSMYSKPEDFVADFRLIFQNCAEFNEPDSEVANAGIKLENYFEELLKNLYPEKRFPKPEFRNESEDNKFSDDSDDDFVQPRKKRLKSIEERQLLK
Conditions: Compound concentration 20.0 uM
Residues, ends and D or L forms follow the SMILES beside them.
propertyLabel: ΔTm

{"columns": ["compound", "result"],
 "data": [
  ["CSCC[C@H](NC(=O)[C@H](CC(=O)O)NC(C)=O)C(=O)N[C@@H](CCC(N)=O)C(=O)N[C@H](C=O)CC(=O)O (Ac-DMQD-aldehyde)", "-0.9 °C"],
  ["c1ccc(Cn2c(-c3ccc(OC[C@H](C4CCNCC4)n4c(-c5ccccc5)nc5ccccc54)cc3)nc3ccccc32)cc1", "-1.18 °C"],
  ["Cc1cc(OCCCNCCC(N)=O)ccc1Cc1c(O[C@@H]2O[C@H](CO)[C@@H](O)[C@H](O)[C@H]2O)n[nH]c1C(C)C", "-0.75 °C"],
  ["CC(C)[C@@H]1C(=O)N(S(C)(=O)=O)[C@@H]2CCN(C(=O)/C=C/CN3CCCCC3)[C@H]21", "-1.12 °C"]
]}

The origin of these recorded values is ChEMBL document CHEMBL5724796.
